Source: patent US20260209362A1

target_system: T1, biotinylated recombinant human IL-12Rβ2 (human, UniProt Q99665 24-622, random biotinylated)
T1 construct: Recombinant protein produced in-house, biotinylated; also called hIL-12RB2; human IL-12RB2
T1 sequence: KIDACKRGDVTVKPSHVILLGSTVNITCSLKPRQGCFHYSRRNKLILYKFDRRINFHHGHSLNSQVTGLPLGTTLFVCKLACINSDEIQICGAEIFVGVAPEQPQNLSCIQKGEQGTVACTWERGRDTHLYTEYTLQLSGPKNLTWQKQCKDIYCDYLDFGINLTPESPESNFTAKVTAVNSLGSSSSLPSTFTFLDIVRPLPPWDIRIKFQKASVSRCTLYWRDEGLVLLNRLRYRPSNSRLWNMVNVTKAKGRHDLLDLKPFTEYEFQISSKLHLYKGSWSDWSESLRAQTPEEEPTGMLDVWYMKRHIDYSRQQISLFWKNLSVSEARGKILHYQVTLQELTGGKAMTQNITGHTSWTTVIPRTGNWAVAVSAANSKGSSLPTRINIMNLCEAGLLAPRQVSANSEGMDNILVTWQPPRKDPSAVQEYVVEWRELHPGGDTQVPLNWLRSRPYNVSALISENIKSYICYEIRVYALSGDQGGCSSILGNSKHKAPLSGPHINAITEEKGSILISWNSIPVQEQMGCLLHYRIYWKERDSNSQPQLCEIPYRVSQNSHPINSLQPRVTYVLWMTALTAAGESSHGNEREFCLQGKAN
procedure_details: BLI (Octet), periplasmic extract on biotinylated hIL-12Rβ2 on streptavidin tips, 1:1 model
readout_name: koff (s⁻¹)
Report the value in s⁻¹ with no unit label.

Examples with answers:
anti-IL-12Rβ2 VHH clone 21057 (VHH, not shown: small tags and cut ends, tested as periplasmic extract; also called 3CRHM35) VHH: QVQLQESGGGLVQAGGSLRLSCAASGRTFSNYAMAWFRQAPGTEREFVAGLSGSGGDTAFYDNSVMGRFTISRDSAKNTMWLQINNLKPEDTAVYYCAAATHVVVNYGLVRRRGTYDYWGQGTQVTVSS | 0.00576
anti-IL-12Rβ2 VHH clone 21058 (VHH, not shown: small tags and cut ends, tested as periplasmic extract; also called 3CRHM49) VHH: QVQLQESGGGLVQAGGSLRLSCAASGRTFSNYAMAWFRQAPGTEREFVAGLSGSGGDTAFYDNSVMGRFTISRDSAKNTMWLQINNLKPEDTAVYYCAAATHVVVSYGLVRRRGTYDYWGQGTQVTVSS | 0.00619
anti-IL-12Rβ2 VHH clone 20358 (VHH, not shown: small tags and cut ends, tested as periplasmic extract; also called 3CAH34) VHH: QVQLQESGGGSVQPGGSLRLSCGASGFTFSSFGMHWFRQAPGKGQEWAATISSSGGTTYYSDSVKGRFTISRDNAKNTLYLQMNSLKPEDTALYYCARDVTGAVRGQGTQVTVSS | 0.00636
anti-IL-12Rβ2 VHH clone 20370 (VHH, not shown: small tags and cut ends, tested as periplasmic extract; also called 2CRH76) VHH: QVQLQESGGGLVQTGGSLRLSCVASGRTFNWSAMGWFRQPPGKEREVVATISGGGTSAYYADSVKGRFTISRDGAKNTLYLQMNSLKPEDTAVYYCAADRVDYRMTLTQNGNHYWGQGTQVTVSS | 0.00354
anti-IL-12Rβ2 VHH clone 20372 (VHH, not shown: small tags and cut ends, tested as periplasmic extract; also called 2CRH82) VHH: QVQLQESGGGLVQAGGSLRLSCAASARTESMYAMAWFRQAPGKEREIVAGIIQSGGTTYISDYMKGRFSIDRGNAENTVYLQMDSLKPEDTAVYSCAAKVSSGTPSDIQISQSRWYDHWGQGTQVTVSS | 0.00274
anti-IL-12Rβ2 VHH clone 21060 (VHH, not shown: small tags and cut ends, tested as periplasmic extract; also called 3CRHM73) VHH: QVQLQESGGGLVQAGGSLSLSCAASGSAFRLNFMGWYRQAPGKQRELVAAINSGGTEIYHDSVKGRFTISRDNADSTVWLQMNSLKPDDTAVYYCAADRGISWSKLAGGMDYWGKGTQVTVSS | 0.00605

input: Reported koff, binder anti-IL-12Rβ2 VHH clone 21064 (VHH, not shown: small tags and cut ends, tested as periplasmic extract; also called 3CRHM200) VHH: QVQLQESGGGLVQPGGSLRLSCAASGRTFSNYAMAWFRQAPGTEREFVAGLSGSGGDTAFYDNSVMGRFTISRDSAKNTMWLQINNLKPEDTAVYYCAAATHVVVSYGLVRRRGTYDYWGQGTQVTVSS : ____
output: 0.00571

input: Reported koff, binder anti-IL-12Rβ2 VHH clone 20389 (VHH, not shown: small tags and cut ends, tested as periplasmic extract; also called 3CRH73) VHH: QVQLQESGGGLVRAGGSLRLSCAASGHTFSNYVMGWFRQAPGKEREFVAAISWGGSNTYYADSVKGRFTISRDNAKNTVYLQMNSLKVEDTAVYYCAADRRFEGWNYYSMDYWGKGTQVTVSS : ____
output: 0.0052

input: Reported koff, binder anti-IL-12Rβ2 VHH clone 20391 (VHH, not shown: small tags and cut ends, tested as periplasmic extract; also called 3CRH93) VHH: QVQLQESGGGLVQAGGSLRLSCAASGRTVDSYAMGWFRQTPGKEREFVAASWGGGSTYYADSVKGRFTISRDNVKNTMYLQMDSLKPEDTAVYYCAAGPTYYSGPINDNWEGRYDSWGQGTQVTVSS : ____
output: 0.00486

input: Reported koff, binder anti-IL-12Rβ2 VHH clone 21053 (VHH, not shown: small tags and cut ends, tested as periplasmic extract; also called 3CRHM14) VHH: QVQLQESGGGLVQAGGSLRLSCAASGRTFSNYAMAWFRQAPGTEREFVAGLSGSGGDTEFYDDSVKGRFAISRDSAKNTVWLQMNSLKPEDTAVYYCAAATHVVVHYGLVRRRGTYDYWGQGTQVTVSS : ____
output: 0.00532

input: Reported koff, binder anti-IL-12Rβ2 VHH clone 21052 (VHH, not shown: small tags and cut ends, tested as periplasmic extract; also called 3CRHM12) VHH: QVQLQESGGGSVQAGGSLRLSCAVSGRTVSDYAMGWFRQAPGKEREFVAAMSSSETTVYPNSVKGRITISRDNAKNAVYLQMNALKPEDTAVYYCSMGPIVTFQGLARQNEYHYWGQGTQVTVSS : ____
output: 0.00547

input: Reported koff, binder anti-IL-12Rβ2 VHH clone 20404 (VHH, not shown: small tags and cut ends, tested as periplasmic extract; also called 3CAHS153) VHH: QVQLQESGGGLVQAGGSLRLSCAASGRTFSSYAMGWFRQVPGKERDFVAAVSWGGLSTYYADSVEGRFTISRDNAKNTVFLQMNSLKPEDTAVYYCAADRAYEGLGYGEYEYWGQGTQVTVSS : ____
output: 0.00302

input: Reported koff, binder anti-IL-12Rβ2 VHH clone 21062 (VHH, not shown: small tags and cut ends, tested as periplasmic extract; also called 3CRHM99) VHH: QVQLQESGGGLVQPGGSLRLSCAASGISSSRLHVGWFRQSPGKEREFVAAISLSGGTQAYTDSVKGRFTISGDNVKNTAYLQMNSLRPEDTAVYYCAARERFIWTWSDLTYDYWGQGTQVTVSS : ____
output: 0.00634

input: Reported koff, binder anti-IL-12Rβ2 VHH clone 21061 (VHH, not shown: small tags and cut ends, tested as periplasmic extract; also called 3CRHM85) VHH: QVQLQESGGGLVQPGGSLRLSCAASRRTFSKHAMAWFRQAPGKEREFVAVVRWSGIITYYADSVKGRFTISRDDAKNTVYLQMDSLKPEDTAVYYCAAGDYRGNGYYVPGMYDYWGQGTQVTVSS : ____
output: 0.00343

input: Reported koff, binder anti-IL-12Rβ2 VHH clone 21063 (VHH, not shown: small tags and cut ends, tested as periplasmic extract; also called 3CRHM133) VHH: QVQLQESGGGSVQAGGSLRLSCAVSGRPVSDYAMGWFRQAPGKEREFVAALSASDTTVYPNSVKGRITISRDNAKNAVDLQMNALKPEDTAVYYCAMGPIGTFQGLARQNEYHYWGQGTQVTVSS : ____
output: 0.00389
